# experimental-system: Human immunodeficiency virus type 1 protease (Human immunodeficiency virus 1, UniProt Q72874)
# experiment-summary: inhibitory activity against purified HIV-1 protease in a standardized spectrophotometric assay expressed in Escherichia coli

chemical-string	IC50
COC(=O)[C@@H](NC(=O)[C@H](OCc1ccccc1)[C@H](O)[C@@H](O)[C@@H](OCc1ccccc1)C(=O)N[C@H](C(=O)OC)C(C)C)C(C)C	5 µM

###

# experimental-system: Human immunodeficiency virus type 1 protease (Human immunodeficiency virus 1)
Below, each of the compounds is paired with its reported Ki value.
endpoint-label: Ki

compound	endpoint-label	observed-value
CNC(=O)[C@H](Cc1ccccc1)NC(=O)[C@H](OCc1ccccc1)[C@H](O)[C@@H](O)[C@@H](OCc1ccccc1)C(=O)N[C@@H](Cc1ccccc1)C(=O)NC	Ki	140 nM
CNC(=O)C(NC(=O)[C@H](OCc1ccccc1)[C@H](O)[C@@H](O)[C@@H](OCc1ccccc1)C(=O)NC(C(=O)NC)c1cccc(F)c1)c1cccc(F)c1 (some centres undefined)	Ki	81 nM
CNC(=O)[C@@H](NC(=O)[C@H](OCc1ccccc1)[C@H](O)[C@@H](O)[C@@H](OCc1ccccc1)C(=O)N[C@H](C(=O)NC)C(C)C)C(C)C	Ki	0.4 nM
O=C(NCc1c(F)cccc1Cl)[C@H](OCc1ccccc1)[C@H](O)[C@@H](O)[C@@H](OCc1ccccc1)C(=O)NCc1c(F)cccc1Cl	Ki	2000 nM

###

Below, each of the compounds is paired with its reported pKi value.
# experimental-system: Human immunodeficiency virus type 1 protease (Human immunodeficiency virus 1)
pKi: −log10 of the molar value.
endpoint-label: pKi

compound	observed-value
CNC(=O)[C@H](Cc1ccc(O)cc1)NC(=O)[C@H](OCc1ccccc1)[C@H](O)[C@@H](O)[C@@H](OCc1ccccc1)C(=O)N[C@@H](Cc1ccc(O)cc1)C(=O)NC	5.30
CNC(=O)[C@H](CCSC)NC(=O)[C@H](OCc1ccccc1)[C@H](O)[C@@H](O)[C@@H](OCc1ccccc1)C(=O)N[C@@H](CCSC)C(=O)NC	6.18
O=C(N[C@@H]1c2ccccc2C[C@@H]1O)[C@H](OCc1ccccc1)[C@H](O)[C@@H](O)[C@@H](OCc1ccccc1)C(=O)N[C@H]1c2ccccc2C[C@H]1O	9.70
CNC(=O)C(NC(=O)[C@H](OCc1ccccc1)[C@H](O)[C@@H](O)[C@@H](OCc1ccccc1)C(=O)NC(C(=O)NC)[C@@H](C)O)[C@H](C)O (stereo partly specified)	6.30
O=C(NCc1cncs1)[C@H](OCc1ccccc1)[C@H](O)[C@@H](O)[C@@H](OCc1ccccc1)C(=O)NCc1cncs1	5.15
CC[C@@H](C)C(NC(=O)[C@H](OCc1ccccc1)[C@H](O)[C@@H](O)[C@@H](OCc1ccccc1)C(=O)NC(C(=O)NC)[C@@H](C)CC)C(=O)NC (stereo partly specified)	9.05
